Parameter: Activity. Scope: all listed entries.
assayedTarget: Glutamate NMDA receptor; Grin1/Grin2c (Rattus norvegicus) (UniProt P35439+Q00961)
testSummary: Potentiation of rat recombinant GluN1/GluN2C expressed in Xenopus laevis oocytes assessed as increase in glutamate/glycine-induced current response at 30 uM by two-electrode voltage clamp technique relative to control
Assay type: cell-based

- compound: "COC(=O)c1ccc(C2C(C(=O)c3cccnc3)=C(O)C(=O)N2CCc2c[nH]c3cc(F)ccc23)cc1 (centres undefined)"
  Activity: "163%"
- compound: "COC(=O)c1ccc(C2C(C(=O)c3ccncc3)=C(O)C(=O)N2Cc2c[nH]c3ccccc23)cc1 (centres undefined)"
  Activity: "84%"
- compound: "COC(=O)c1ccc(C2C(C(C)=O)=C(O)C(=O)N2CCc2c[nH]c3ccccc23)cc1 (centres undefined)"
  Activity: "196%"
- compound: "COC(=O)c1ccc(C2C(C(C)=O)=C(OC(C)=O)C(=O)N2CCc2c[nH]c3ccccc23)cc1 (centres undefined)"
  Activity: "120%"
- compound: "COC(=O)c1ccc(C2C(C(=O)c3ccncc3)=C(O)C(=O)N2CCn2cnc3ccccc32)cc1 (centres undefined)"
  Activity: "84%"
- compound: "COC(=O)c1ccc(C2C(C(C)=O)=C(O)C(=O)N2CCc2c[nH]c3c(C)cccc23)cc1 (centres undefined)"
  Activity: "121%"
- compound: "COC(=O)c1ccc(C2C(C(=O)c3cccnc3)=C(O)C(=O)N2CCc2c[nH]c3cc(C)ccc23)cc1 (centres undefined)"
  Activity: "219%"
- compound: "COC(=O)c1ccc(C2C(C(=O)c3cccnc3)=C(O)C(=O)N2CCCc2c[nH]c3ccccc23)cc1 (centres undefined)"
  Activity: "84%"
- compound: "COC(=O)c1ccccc1C1C(C(C)=O)=C(O)C(=O)N1CCc1c[nH]c2ccccc12 (centres undefined)"
  Activity: "99%"
- compound: "CC(=O)C1=C(O)C(=O)N(CCc2c[nH]c3ccccc23)C1c1ccc(C(=O)O)cc1 (centres undefined)"
  Activity: "93%"
- compound: "COC(=O)c1ccc(C2C(C(=O)c3cccnc3)=C(O)C(=O)N2CCc2c[nH]c3c(F)cccc23)cc1 (centres undefined)"
  Activity: "161%"
- compound: "CNC(=O)c1ccc(C2C(C(=O)c3cccnc3)=C(O)C(=O)N2CCc2c[nH]c3ccccc23)cc1 (centres undefined)"
  Activity: "93%"
- compound: "COC(=O)c1ccc(C2C(C(=O)c3ccccn3)=C(O)C(=O)N2CCc2c[nH]c3ccccc23)cc1 (centres undefined)"
  Activity: "97%"
- compound: "COC(=O)c1ccc(C2C(C(=O)c3cccnc3)=C(O)C(=O)N2CCc2c[nH]c3cc(OC)ccc23)cc1 (centres undefined)"
  Activity: "194%"
- compound: "CCOC(=O)c1ccc(C2C(C(C)=O)=C(O)C(=O)N2CCc2c(C)[nH]c3ccccc23)cc1 (centres undefined)"
  Activity: "220%"
- compound: "COC(=O)c1ccc(C2C(C(C)=O)=C(O)C(=O)N2CCc2c[nH]c3ccccc23)c(O)c1 (centres undefined)"
  Activity: "173%"
- compound: "CCOC(=O)c1ccc(C2C(C(C)=O)=C(O)C(=O)N2CCc2c[nH]c3ccccc23)cc1 (centres undefined)"
  Activity: "201%"
- compound: "CC(=O)C1=C(O)C(=O)N(CCc2c[nH]c3ccccc23)C1c1ccc(C(=O)OC(C)(C)C)cc1 (centres undefined)"
  Activity: "85%"
- compound: "CCCC(=O)OC1=C(C(C)=O)C(c2ccc(C(=O)OC)cc2)N(CCc2c(C)[nH]c3ccccc23)C1=O (centres undefined)"
  Activity: "186%"
- compound: "COC(=O)c1ccc(C2C(C(=O)c3ccncc3)=C(O)C(=O)N2CCc2c[nH]cn2)cc1 (centres undefined)"
  Activity: "89%"
- compound: "COC(=O)c1ccc(C2C(C(=O)c3ccncc3)=C(O)C(=O)N2CCc2cccc3ccccc23)cc1 (centres undefined)"
  Activity: "34%"
- compound: "COC(=O)c1ccc(C2C(C(=O)c3cccc(C)c3)=C(O)C(=O)N2CCc2c[nH]c3ccccc23)cc1 (centres undefined)"
  Activity: "122%"
- compound: "CC(=O)C1=C(O)C(=O)N(CCc2c[nH]c3ccccc23)C1c1ccc(C(=O)OC(C)C)cc1 (centres undefined)"
  Activity: "102%"
- compound: "COC(=O)c1ccc(C2C(C(C)=O)=C(O)C(=O)N2CCc2c[nH]c3ccccc23)cc1Cl (centres undefined)"
  Activity: "113%"
- compound: "COC(=O)c1ccc(C2C(C(C)=O)=C(OC)C(=O)N2CCc2c[nH]c3ccccc23)cc1 (centres undefined)"
  Activity: "127%"
- compound: "COC(=O)c1ccc(C2C(C(C)=O)=C(O)C(=O)N2CCc2c(C)[nH]c3ccccc23)cc1 (racemic)"
  Activity: "179%"
- compound: "CNS(=O)(=O)c1ccc(C2C(C(=O)c3cccnc3)=C(O)C(=O)N2CCc2c[nH]c3ccccc23)cc1 (centres undefined)"
  Activity: "114%"
- compound: "COC(=O)c1ccc(C2C(C(=O)c3cccnc3)=C(O)C(=O)N2CCc2c[nH]c3cccc(C)c23)cc1 (centres undefined)"
  Activity: "85%"
- compound: "N#Cc1ccc(C2C(C(=O)c3cccnc3)=C(O)C(=O)N2CCc2c[nH]c3ccccc23)cc1 (centres undefined)"
  Activity: "100%"
- compound: "COC(=O)c1ccc(C2C(C(C)=O)=C(O)C(=O)N2CCc2c[nH]c3ccccc23)cc1C (centres undefined)"
  Activity: "88%"
- compound: "COC(=O)c1cccc(C2C(C(C)=O)=C(O)C(=O)N2CCc2c[nH]c3ccccc23)c1 (centres undefined)"
  Activity: "94%"
- compound: "CN(C)C(=O)c1ccc(C2C(C(=O)c3cccnc3)=C(O)C(=O)N2CCc2c[nH]c3ccccc23)cc1 (centres undefined)"
  Activity: "101%"
- compound: "COC(=O)c1ccc(C2C(C(=O)c3cccc(O)c3)=C(O)C(=O)N2CCc2c[nH]c3ccccc23)cc1 (centres undefined)"
  Activity: "169%"
- compound: "COC(=O)c1ccc(C2C(C(=O)c3cccnc3)=C(O)C(=O)N2CCc2coc3ccccc23)cc1 (centres undefined)"
  Activity: "113%"
